B1: Mineralocorticoid receptor, residues 600 to 675; numbered along this chain, P08235 (parent)
chain: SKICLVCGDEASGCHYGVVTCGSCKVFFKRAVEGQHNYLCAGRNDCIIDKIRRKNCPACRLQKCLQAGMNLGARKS

# Variants of: B1
# protocol_details: abundance fitness (aPCA) (normalised: wild type 0, dead -1); higher = more abundant; growth selection in yeast, the domain comes from the species named
# details: Homo sapiens
Some variants, each annotated with its measured abundance fitness.
measurement_name: abundance fitness

[
  {
    "mutation_spec": "K75I",
    "measured_result": -0.213
  },
  {
    "mutation_spec": "G8A",
    "measured_result": 0.058
  },
  {
    "mutation_spec": "R53D",
    "measured_result": -0.024
  },
  {
    "mutation_spec": "A58C",
    "measured_result": 0.05
  },
  {
    "mutation_spec": "G68K",
    "measured_result": -0.217
  },
  {
    "mutation_spec": "Q66T",
    "measured_result": -0.051
  },
  {
    "mutation_spec": "R74W",
    "measured_result": 0
  },
  {
    "mutation_spec": "K25F",
    "measured_result": -0.112
  },
  {
    "mutation_spec": "V32Q",
    "measured_result": -0.017
  },
  {
    "mutation_spec": "C40L",
    "measured_result": -0.847
  },
  {
    "mutation_spec": "A67F",
    "measured_result": -0.121
  },
  {
    "mutation_spec": "Y38L",
    "measured_result": -0.054
  },
  {
    "mutation_spec": "L39Q",
    "measured_result": -0.001
  },
  {
    "mutation_spec": "V26C",
    "measured_result": -0.1
  },
  {
    "mutation_spec": "I48K",
    "measured_result": -0.082
  },
  {
    "mutation_spec": "S23H",
    "measured_result": -0.143
  },
  {
    "mutation_spec": "V19F",
    "measured_result": 0.047
  },
  {
    "mutation_spec": "E10A",
    "measured_result": -0.063
  },
  {
    "mutation_spec": "Y38W",
    "measured_result": -0.047
  },
  {
    "mutation_spec": "R43M",
    "measured_result": 0.008
  },
  {
    "mutation_spec": "I51P",
    "measured_result": -0.137
  },
  {
    "mutation_spec": "L61E",
    "measured_result": -0.214
  },
  {
    "mutation_spec": "H36S",
    "measured_result": 0.01
  },
  {
    "mutation_spec": "I48P",
    "measured_result": -0.131
  },
  {
    "mutation_spec": "D45T",
    "measured_result": -0.104
  },
  {
    "mutation_spec": "A67I",
    "measured_result": -0.076
  },
  {
    "mutation_spec": "K25I",
    "measured_result": -0.069
  },
  {
    "mutation_spec": "G72Q",
    "measured_result": 0.053
  },
  {
    "mutation_spec": "G72V",
    "measured_result": 0.012
  },
  {
    "mutation_spec": "G68T",
    "measured_result": -0.423
  },
  {
    "mutation_spec": "G17I",
    "measured_result": -0.24
  },
  {
    "mutation_spec": "N55T",
    "measured_result": 0.015
  },
  {
    "mutation_spec": "N70L",
    "measured_result": -0.089
  },
  {
    "mutation_spec": "C7L",
    "measured_result": -1.15
  },
  {
    "mutation_spec": "S76C",
    "measured_result": -0.128
  },
  {
    "mutation_spec": "G42W",
    "measured_result": -0.126
  },
  {
    "mutation_spec": "I51M",
    "measured_result": 0.024
  }
]
